Recorded values, source patent EP4631931A1.

assay-text: Pharmacokinetic experiment in rats
Assay type: in vivo
recorded-conditions: female, rat, plasma, Oral administration (10 mg/kg)
measure: bioavailability
Please answer using the number first and the unit second.

Dear colleague, please send me the reported bioavailability for [2H]c1cc(C(=O)Nc2ccc(F)cc2N)ccc1CNC(=O)/C=C/c1cccnc1 when you can.
40.1%

----------
assay-text: Pharmacokinetic experiment in mice
Assay type: in vivo, CD-1 female mice
recorded-conditions: female, CD-1, mouse, plasma, Oral administration (10 mg/kg)
# if value of Cmax reaches 2000 ng/mL, tag Criterion met; if it stays below, tag Criterion not met

[2H]c1ccc(/C=C/C(=O)NCc2ccc(C(=O)Nc3ccc(F)cc3N)cc2)cn1 : Criterion met
[2H]c1cc(C(=O)Nc2ccc(F)cc2N)ccc1CNC(=O)/C=C/c1cccnc1 : Criterion not met
[2H]c1c(F)ccc(NC(=O)c2ccc(CNC(=O)/C=C/c3cccnc3)cc2)c1N : Criterion met

Please indicate if the recorded Cmax for [2H]/C(=C\C(=O)NCc1ccc(C(=O)Nc2ccc(F)cc2N)cc1)c1cccnc1 meets or exceeds 2000 ng/mL.
Criterion not met

Please indicate if the recorded Cmax for [2H]c1cc(F)cc(N)c1NC(=O)c1ccc(CNC(=O)/C=C/c2cccnc2)cc1 meets or exceeds 2000 ng/mL.
Criterion met

Please indicate if the recorded Cmax for [2H]c1cncc(/C=C/C(=O)NCc2ccc(C(=O)Nc3ccc(F)cc3N)cc2)c1 meets or exceeds 2000 ng/mL.
Criterion met

Please indicate if the recorded Cmax for [2H]c1cc(NC(=O)c2ccc(CNC(=O)/C=C/c3cccnc3)cc2)c(N)cc1F meets or exceeds 2000 ng/mL.
Criterion met

Please indicate if the recorded Cmax for [2H]c1cc(CNC(=O)/C=C/c2cccnc2)ccc1C(=O)Nc1ccc(F)cc1N meets or exceeds 2000 ng/mL.
Criterion not met

Please indicate if the recorded Cmax for [2H]c1ncccc1/C=C/C(=O)NCc1ccc(C(=O)Nc2ccc(F)cc2N)cc1 meets or exceeds 2000 ng/mL.
Criterion not met

Please indicate if the recorded Cmax for Nc1cc(F)ccc1NC(=O)c1ccc(CNC(=O)/C=C/c2cccnc2)cc1 [Chidamide, reference compound] meets or exceeds 2000 ng/mL.
Criterion met
